System: IRF3 translocation induced by dsDNA (ISD)
Assay: IRF3 translocation inhibition, confocal/immunofluorescence after ISD transfection
Format: cell-based
Conditions: Homo sapiens, % means blockage of IRF3 translocation induced by dsDNA (ISD)
Listing of entries alongside the reported inhibition at 25 µM.

compound	inhibition at 25 µM
Cc1cc(N2CCN(Cc3csc(-c4ccc(C(F)(F)F)cc4)n3)CC2)nc(N(C)C)n1 [Compound W11]	90 to 100%
COc1ccc(-c2nc(CN3CCN(c4cc(C)nc(N(C)C)n4)CC3)cs2)cc1OC [Compound W3]	40 to 50%

Next compound, inhibition at 25 µM to be filled in.
The reported value for COc1ccc(-c2nc(CN3CCN(c4cc(C)nc(N(C)C)n4)CC3)cs2)c(OC)c1 [Compound W13] in terms of inhibition at 25 µM is 40 to 50%

====

System: IFNβ expression (type I IFNβ promoter driving luciferase)
Experiment: IFNβ promoter luciferase assay in hTERT-pIFNβ-Glu cells transfected with ISD
Type: cell-based, human
Conditions: Homo sapiens
Listing of entries alongside the reported inhibition at 5 µM.
Numeric answer only, unit % assumed.

Answered cases to consult:
molecule	recorded.endpoint	measured
COc1ccc(-c2nc(CN3CCN(c4cc(C)nc(N(C)C)n4)CC3)cs2)c(OC)c1 [Compound W13]	inhibition at 5 µM	30
Cc1cc(N2CCN(Cc3csc(-c4ccc5c(c4)OCO5)n3)CC2)nc(N(C)C)n1 [Compound W9]	inhibition at 5 µM	-40

The reported value for CCN(C)c1nc(C)cc(N2CCN(Cc3csc(-c4ccc(OC)c(OC)c4)n3)CC2)n1 [Compound W21] in terms of inhibition at 5 µM is -84

====

Listing of entries alongside the reported inhibition at 5 µM.
Tested on: IFNβ expression (type I IFNβ promoter driving luciferase)
Assay: IFNβ promoter luciferase assay in hTERT-pIFNβ-Glu cells transfected with ISD
Type: cell-based, human
Conditions: Homo sapiens
Numeric answer only, unit % assumed.

Cc1cc(N2CCN(Cc3csc(-c4ccc(C5CC5)cc4)n3)CC2)nc(N(C)C)n1 50
COc1ccc(-c2nc(CN3CCN(c4cc(C(F)(F)F)nc(N(C)C)n4)CC3)cs2)cc1OC -89

The reported value for `Cc1cc(N2CCN(Cc3csc(-c4ccc(CC(F)(F)F)cc4)n3)CC2)nc(N(C)C)n1` in terms of inhibition at 5 µM is 65

The reported value for `Cc1cc(N2CCN(Cc3csc(-c4ccc(C#N)cc4)n3)CC2)nc(N(C)C)n1` in terms of inhibition at 5 µM is -62
